- measured.on: T1, complement component 3 (C3) (UniProt P01024 23-1663)
- T1 construct: Purified bought protein; native C3 is a disulfide-linked two-chain protein made from one precursor
- test.name: SPR, target amine-coupled to chip, single cycle kinetics, 1:1 Langmuir fit
measure.name: pKd
Please express pKd as -log10 of the molar concentration.

Q: Which pKd is reported for this binder? polypeptide having the amino acid sequence of SEQ ID NO: 27 (designed binder, Sac7d variant (Nanofitin); also called parental clone of cluster 6; Nanofitin) MVKVKFEATGEEKEVDTSKIYQVYRSGKEVLFTYDDNGKTGWGYVSEKDAPKELLDMLARAEREK
A: 8.71

Q: Another: polypeptide comprising the amino acid sequence of SEQ ID NO: 34 (designed binder) MVKVKFDATGEEKEVETSKISAVYRTGKDVLFSYDDQGKIGWGYVSEKDAPKELLDLLARAEREK
A: 9.18

Q: Another: polypeptide comprising the amino acid sequence of SEQ ID NO: 33 (designed binder) MVKVKFAATGEEKEVETSKIANVYRVGKDVLFSYDDQGKIGWGYVSEKDAPKELLDLLARAEREK
A: 9.66
